# target_system: B-Raf (V600E)-kinase (Homo sapiens (Human), UniProt P15056, V600E)
# Sequence (P15056 whole entry V600E): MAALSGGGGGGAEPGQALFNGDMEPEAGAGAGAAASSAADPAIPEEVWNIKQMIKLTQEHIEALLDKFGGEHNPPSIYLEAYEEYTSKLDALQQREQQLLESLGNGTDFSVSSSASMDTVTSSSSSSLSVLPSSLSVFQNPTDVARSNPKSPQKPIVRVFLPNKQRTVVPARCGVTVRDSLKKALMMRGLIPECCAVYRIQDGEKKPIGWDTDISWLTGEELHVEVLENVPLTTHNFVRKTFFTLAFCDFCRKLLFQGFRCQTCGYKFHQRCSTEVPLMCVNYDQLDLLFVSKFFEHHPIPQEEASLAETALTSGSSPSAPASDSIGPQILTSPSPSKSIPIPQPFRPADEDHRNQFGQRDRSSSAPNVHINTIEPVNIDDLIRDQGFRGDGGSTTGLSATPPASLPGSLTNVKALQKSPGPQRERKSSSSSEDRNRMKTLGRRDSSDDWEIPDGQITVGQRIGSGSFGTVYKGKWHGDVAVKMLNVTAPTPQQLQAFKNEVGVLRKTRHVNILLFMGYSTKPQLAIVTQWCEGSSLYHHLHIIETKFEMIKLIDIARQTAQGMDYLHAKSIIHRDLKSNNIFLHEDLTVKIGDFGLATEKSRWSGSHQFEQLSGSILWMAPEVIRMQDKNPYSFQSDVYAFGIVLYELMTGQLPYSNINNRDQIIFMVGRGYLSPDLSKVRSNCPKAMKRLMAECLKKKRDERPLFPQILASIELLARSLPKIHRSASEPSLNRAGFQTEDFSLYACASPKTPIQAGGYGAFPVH
# protocol_notes: Kinase test B-RAF (V600E)
# Type: biochemical
# condition_description: B-RAF (V600E) kinase test, 250 μM ATP
quantity_measured: IC50 (nM)
Number in nM, nothing else.

Worked examples follow.
[
  {
    "compound": "CN(CCN1CCCC1)c1ncc2ncnc(Nc3cc(C(=O)Nc4cc(C(C)(C)C)on4)ccc3C(F)(F)F)c2n1",
    "target_system": "B-Raf (V600E)-kinase (Homo sapiens (Human), UniProt P15056, V600E)",
    "result_units": "nM",
    "IC50": 835
  },
  {
    "compound": "COc1ccc(C(F)(F)F)cc1NC(=O)c1ccc(C)c(Nc2ncnc3cnc(N4CCCCC4)nc23)c1",
    "target_system": "B-Raf (V600E)-kinase (Homo sapiens (Human), UniProt P15056, V600E)",
    "result_units": "nM",
    "IC50": 9
  },
  {
    "compound": "Cc1ccc(C(=O)Nc2ccccc2)cc1Nc1ncnc2cnc(N3CCCN(C)CC3)nc12",
    "target_system": "B-Raf (V600E)-kinase (Homo sapiens (Human), UniProt P15056, V600E)",
    "result_units": "nM",
    "IC50": 2880
  },
  {
    "compound": "Cc1ccc(NS(=O)(=O)CC(F)(F)F)cc1Nc1ncnc2cnc(N3CCN(C)CC3)nc12",
    "target_system": "B-Raf (V600E)-kinase (Homo sapiens (Human), UniProt P15056, V600E)",
    "result_units": "nM",
    "IC50": 10000
  },
  {
    "compound": "Cc1ccc(C(=O)Nc2cc(C(C)(C)C)on2)cc1Nc1ncnc2cnc(N3CCCOCC3)nc12",
    "target_system": "B-Raf (V600E)-kinase (Homo sapiens (Human), UniProt P15056, V600E)",
    "result_units": "nM",
    "IC50": 2
  },
  {
    "compound": "COc1ccc(C(F)(F)F)cc1NC(=O)c1ccc(C)c(Nc2ncnc3cnc(N4CC[C@H](F)C4)nc23)c1",
    "target_system": "B-Raf (V600E)-kinase (Homo sapiens (Human), UniProt P15056, V600E)",
    "result_units": "nM",
    "IC50": 2
  },
  {
    "compound": "CN1CCCN(c2ncc3ncnc(Nc4cc(C(=O)Nc5cc(C(C)(C)C)on5)ccc4Cl)c3n2)CC1",
    "target_system": "B-Raf (V600E)-kinase (Homo sapiens (Human), UniProt P15056, V600E)",
    "result_units": "nM",
    "IC50": 4
  },
  {
    "compound": "COc1ccc(NC(=O)c2ccc(C)c(Nc3ncnc4cnc(N5CCC(N6CCCC6)CC5)nc34)c2)cc1C(F)(F)F",
    "target_system": "B-Raf (V600E)-kinase (Homo sapiens (Human), UniProt P15056, V600E)",
    "result_units": "nM",
    "IC50": 7
  }
]

Input: Which IC50 reading was recorded for the compound Cc1cn(-c2cc(NC(=O)c3ccc(C)c(Nc4ncnc5cnc(NC6CCOC6)nc45)c3)cc(C(F)(F)F)c2)cn1 (stereo not drawn) ?
Output: 1

Input: Same for CN1CCC(N2CCN(c3nc(N)c4ncnc(Nc5cc(C(=O)Nc6cccc(C(F)(F)F)c6)ccc5Cl)c4n3)CC2)CC1
Output: 3

---

pIC50: recorded values
# target_system: B-Raf (V600E)-kinase (Homo sapiens (Human), UniProt P15056, V600E)
# protocol_notes: Kinase test B-RAF (V600E)
# Assay type: biochemical
# condition_description: B-RAF (V600E) kinase test, 250 μM ATP
Friendly reminder that pIC50 comes from taking -log10 of the concentration in mol/L.

Input: Which pIC50 is reported for this compound? Cc1ccc(C(=O)Nc2cccc(C(C)(C)C#N)c2)cc1Nc1ncnc2cnc(N3CCCCC3)nc12
Output: 8.52

Input: Moving on to the next compound: CCN1CCN(c2cc(NC(=O)c3ccc(C)c(Nc4ncnc5cnc(N6CCN(CCOC)CC6)nc45)c3)cc(C(F)(F)F)c2)CC1
Output: 8.22

Input: Next: CCCS(=O)(=O)Nc1ccc(C)c(Nc2ncnc3cnc(N4CCN(C)CC4)nc23)c1
Output: 5.70

Input: Okay, and Cc1ccc(C(=O)Nc2cc(N(C)CCN(C)C)cc(C(F)(F)F)c2)cc1Nc1ncnc2c(N)nc(N3CC[C@H](F)C3)nc12 ?
Output: 8.40

Input: Follow-up entry: COc1ccc(NC(=O)c2ccc(Cl)c(Nc3ncnc4cnc(N5CCCCC5)nc34)c2)cc1C(F)(F)F
Output: 8.22

Input: Similarly, Cc1ccc(C(=O)Nc2cccc(S(=O)(=O)N(C)C)c2)cc1Nc1ncnc2cnc(N3CC[C@H](F)C3)nc12 ?
Output: 8.15

Input: Follow-up item: COc1ccc(NC(=O)c2ccc(C)c(Nc3ncnc4cnc(N5CCC(N(C)C)CC5)nc34)c2)cc1C(F)(F)F
Output: 9.00

Input: Request: Cc1ccc(C(=O)Nc2cc(-n3ccnc3)cc(C(F)(F)F)c2)cc1Nc1ncnc2cnc(N3CCOCC3)nc12
Output: 6.24

---

# target_system: B-Raf (V600E)-kinase (Homo sapiens (Human), UniProt P15056, V600E)
# protocol_notes: Kinase test B-RAF (V600E)
# Type: biochemical
# condition_description: B-RAF (V600E) kinase test, 250 μM ATP
quantity_measured: pIC50
Interpret pIC50 as the negative base-10 log of the concentration measured in mol/L.

Some solved entries appear below for comparison.
[
  {
    "molecule": "CCN1CCN(c2ncc3ncnc(Nc4cc(C(=O)Nc5ccc(OC)c(C(F)(F)F)c5)ccc4F)c3n2)CC1 [III-405]",
    "pIC50": 8.30
  },
  {
    "molecule": "COc1ccc(C(C)(C)C)cc1NC(=O)c1ccc(C)c(Nc2ncnc3cnc(N4CC[C@H](F)C4)nc23)c1 [III-291]",
    "pIC50": 7.68
  },
  {
    "molecule": "Cc1ccc(C(=O)Nc2cc(C(C)(C)C)nn2C)cc1Nc1ncnc2cncnc12 [V-10]",
    "pIC50": 7.85
  }
]

Input: Returns the measured pIC50 for the input molecule. Input: CC(C)(C)c1cc(NC(=O)c2ccc(F)c(Nc3ncnc4cnc(N5CCCC5)nc34)c2)no1 [III-90]
Output: 8.30

---

# target_system: B-Raf (V600E)-kinase (Homo sapiens (Human), UniProt P15056, V600E)
# protocol_notes: Kinase test B-RAF (V600E)
# Assay type: biochemical
# condition_description: B-RAF (V600E) kinase test, 250 μM ATP
This section presents compounds with their documented IC50 values.
Write the answer as a number in nM, unit excluded.

Here are 5 compounds together with their reported answers.
[
  {
    "compound": "Cc1ccc(C(=O)Nc2cccc(S(=O)(=O)N(C)C)c2)cc1Nc1ncnc2cnc(N3CCNCC3)nc12",
    "result_units": "nM",
    "IC50": 7
  },
  {
    "compound": "Cc1ccc(C(=O)NCc2cccc(C(C)(C)C)c2)cc1Nc1ncnc2cnc(N3CCCCC3)nc12",
    "result_units": "nM",
    "IC50": 47
  },
  {
    "compound": "Cc1ccc(C(=O)Nc2cccc(OC(F)(F)F)c2)cc1Nc1ncnc2cnc(N3CC[C@H](F)C3)nc12",
    "result_units": "nM",
    "IC50": 1
  },
  {
    "compound": "COc1ccc(NC(=O)c2ccc(Cl)c(Nc3ncnc4cnc(N(C)C)nc34)c2)cc1C(F)(F)F",
    "result_units": "nM",
    "IC50": 2
  },
  {
    "compound": "Cc1ccc(C(=O)Nc2cc(C(C)(C)C)n[nH]2)cc1Nc1ncnc2cnc(N3CCN(CC4CCOC4)CC3)nc12 (stereo not shown)",
    "result_units": "nM",
    "IC50": 9
  }
]

Input: IC50 lookup needed for Cc1ccc(C(=O)Nc2ccccc2)cc1Nc1ncnc2cnc(N3CCN(C)CC3)nc12 , thanks.
Output: 1540

---

# target_system: B-Raf (V600E)-kinase (Homo sapiens (Human), UniProt P15056, V600E)
# protocol_notes: Kinase test B-RAF (V600E)
# Type: biochemical
# condition_description: B-RAF (V600E) kinase test, 250 μM ATP
pIC50: −log10 of the molar value.
Threshold check on pIC50: at or above 8 gives y, strictly below gives n.

The following molecules have reported results that may help.
[
  {
    "molecule": "Cc1ccc(C(=O)Nc2cc(C(C)(C)C)n[nH]2)cc1Nc1ncnc2cncnc12",
    "discrete_label": "y"
  },
  {
    "molecule": "Cc1ccc(C(=O)Nc2cccc(N(C)C)c2)cc1Nc1ncnc2cnc(N3CC[C@@H](F)C3)nc12",
    "discrete_label": "y"
  },
  {
    "molecule": "COCCN1CCN(c2ncc3ncnc(Nc4cc(C(=O)Nc5cc(OC)cc(C(F)(F)F)c5)ccc4C)c3n2)CC1",
    "discrete_label": "y"
  }
]

Input: In plain terms: is recorded pIC50 at least 8 for Cc1ccc(C(=O)Nc2cc(C(C)(C)C)n[nH]2)cc1Nc1ncnc2cnc(NC3CCOC3)nc12 (stereo not drawn) ?
Output: y

Input: Please answer likewise for Cc1ccc(C(=O)Nc2ccccc2)cc1Nc1ncnc2cnc(N3CC[C@@H](F)C3)nc12
Output: n

Input: Another: COc1ccc(NC(=O)c2ccc(C)c(Nc3ncnc4cnc(N5CCOCC5)nc34)c2)cc1C(F)(F)F
Output: y

Input: Can you handle Cc1ccc(C(=O)Nc2cc(OCCN(C)C)cc(C(F)(F)F)c2)cc1Nc1ncnc2cnc(NCC(C)C)nc12 next?
Output: y

Input: Entry to check: CC(C)(C)c1cc(NC(=O)c2ccc(C(F)(F)F)c(Nc3ncnc4cnc(N5CCCCC5)nc34)c2)no1
Output: n

Input: COc1ccc(NC(=O)c2ccc(C)c(Nc3ncnc4c(N)nc(N5CCN(C6CCN(C)CC6)CC5)nc34)c2)cc1C(F)(F)F , same question.
Output: y

Input: // repeat for Cc1ccc(C(=O)Nc2ccc(Cl)c(C(F)(F)F)c2)cc1Nc1ncnc2cnc(N3CCN(C)CC3)nc12 and report
Output: y

Input: Then this molecule: CN1CCN(c2ncc3ncnc(Nc4cc(C(=O)Nc5cc(C(C)(C)C)on5)ccc4C(F)(F)F)c3n2)CC1
Output: n
